measurement.target: UniProtKB P32238
test: Displacement of [3H]L-364718 from human recombinant CCK1 receptor expressed in CHO cell line
Format: cell-based
pKi: −log10 of the molar value.
Recorded pKi values for a group of compounds are listed next.
value.type: pKi

CNCCN(C)c1cccc(NC(=O)CN2N=C(C3CCCCC3)c3ccccc3N(CC(=O)C(C)(C)C)C2=O)c1    5.06
CC(C)(C)C(=O)CN1C(=O)N(CC(=O)Nc2cccc(O)c2)N=C(C2CCCCC2)c2ccccc21    5.82

---

measurement.target: Gastrin/cholecystokinin type B receptor (Rattus norvegicus, UniProt P30553)
Sequence (P30553 whole entry, the tested form may be a part): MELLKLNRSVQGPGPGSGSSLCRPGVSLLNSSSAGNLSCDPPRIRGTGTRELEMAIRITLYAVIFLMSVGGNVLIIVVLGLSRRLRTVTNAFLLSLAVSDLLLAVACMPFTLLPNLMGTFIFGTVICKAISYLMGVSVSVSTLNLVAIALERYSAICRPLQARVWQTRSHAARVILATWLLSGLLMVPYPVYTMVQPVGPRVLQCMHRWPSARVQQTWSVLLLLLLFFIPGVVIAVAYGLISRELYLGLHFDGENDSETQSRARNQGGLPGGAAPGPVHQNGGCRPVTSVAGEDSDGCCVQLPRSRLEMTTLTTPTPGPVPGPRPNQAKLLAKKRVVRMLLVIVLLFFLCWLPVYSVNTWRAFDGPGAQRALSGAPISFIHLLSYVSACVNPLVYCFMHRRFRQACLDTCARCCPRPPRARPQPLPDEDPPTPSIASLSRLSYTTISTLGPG
test: Affinity for CCK2 receptor assessed by inhibition of pentagastrin-stimulated acid secretion in perfused rat stomach
Type: functional, tissue-based
conditions.used: read-out: pA2 (converted)
Mark Condition met for reported Kb of 30 nM or greater; mark Condition not met for anything smaller.

CNc1cccc(NC(=O)C[C@H]2N=C(C3CCCCC3)c3ccccc3N(CC(=O)C(C)(C)C)C2=O)c1    Condition not met
CNc1cccc(NC(=O)N[C@@H]2N=C(c3ccccn3)c3ccccc3N(CC(=O)C(C)(C)C)C2=O)c1 [NETAZEPIDE]    Condition not met
CC(C)(C)C(=O)CN1C(=O)N(CC(=O)Nc2cccc(C(=O)O)c2)N=C(C2CCCCC2)c2ccccc21    Condition not met
CNc1cccc(NC(=O)C[C@@H]2N=C(C3CCCCC3)c3ccccc3N(CC(=O)C(C)(C)C)C2=O)c1    Condition not met
CNc1cccc(NC(=O)CN2N=C(c3ccccn3)c3ccccc3N(CC(=O)C(C)(C)C)C2=O)c1    Condition met

---

measurement.target: Cholecystokinin receptor type A (Homo sapiens) (UniProt P32238)
Sequence (P32238 whole entry): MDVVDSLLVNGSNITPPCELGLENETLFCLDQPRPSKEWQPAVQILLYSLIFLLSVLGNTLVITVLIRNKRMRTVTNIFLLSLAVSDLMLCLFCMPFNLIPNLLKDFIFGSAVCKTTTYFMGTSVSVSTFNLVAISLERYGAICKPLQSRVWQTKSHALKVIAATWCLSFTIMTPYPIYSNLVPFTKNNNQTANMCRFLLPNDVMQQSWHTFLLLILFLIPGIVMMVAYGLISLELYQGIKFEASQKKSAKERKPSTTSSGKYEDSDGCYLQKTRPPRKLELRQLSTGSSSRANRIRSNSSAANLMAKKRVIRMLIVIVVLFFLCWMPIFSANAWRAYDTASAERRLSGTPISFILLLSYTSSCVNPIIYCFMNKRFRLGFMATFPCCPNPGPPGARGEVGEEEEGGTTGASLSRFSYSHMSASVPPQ
test: Inhibition of [3H]L-364718 binding to human recombinant CCK1 receptor expressed in CHO cell line at 10 uM
Format: cell-based
Overview of recorded inhibition for various compounds
value.type: inhibition

CC(C)(C)C(=O)CN1C(=O)N(CC(=O)Nc2cccc(N)c2)N=C(C2CCCCC2)c2ccccc21    40%
COc1cccc(NC(=O)CN2N=C(C3CCCCC3)c3ccccc3N(CC(=O)C(C)(C)C)C2=O)c1    46%
CC(C)(C)C(=O)CN1C(=O)N(CC(=O)Nc2cccc(N3CCOCC3)c2)N=C(C2CCCCC2)c2ccccc21    42%
CC(C)(C)C(=O)CN1C(=O)N(CC(=O)Nc2cccc(-n3ccnc3)c2)N=C(C2CCCCC2)c2ccccc21    57%

---

measurement.target: Cholecystokinin receptor type A (Homo sapiens)
Sequence (P32238 whole entry): as above
test: Displacement of [3H]L-364718 from human recombinant CCK1 receptor expressed in PC3 cell line
Format: cell-based, PC-3
pKi: −log10 of the molar value.
value.type: pKi

CNc1cccc(NC(=O)N[C@@H]2N=C(c3ccccn3)c3ccccc3N(CC(=O)C(C)(C)C)C2=O)c1 [NETAZEPIDE]    7.52
CC(C)(C)C(=O)CN1C(=O)N(CC(=O)Nc2cccc(CO)c2)N=C(C2CCCCC2)c2ccccc21    5.23
Cc1cccc(NC(=O)N[C@@H]2N=C(c3ccccc3)c3ccccc3N(C)C2=O)c1    6.76
CNc1cccc(NC(=O)C[C@H]2N=C(C3CCCCC3)c3ccccc3N(CC(=O)C(C)(C)C)C2=O)c1    6.14
CC(C)(C)C(=O)CN1C(=O)N(CC(=O)Nc2cccc(C(=O)O)c2)N=C(C2CCCCC2)c2ccccc21    4.95
CNc1cccc(NC(=O)C[C@@H]2N=C(C3CCCCC3)c3ccccc3N(CC(=O)C(C)(C)C)C2=O)c1    5.93

---

measurement.target: Gastrin/cholecystokinin type B receptor (Homo sapiens, UniProt P32239)
Sequence (P32239 whole entry): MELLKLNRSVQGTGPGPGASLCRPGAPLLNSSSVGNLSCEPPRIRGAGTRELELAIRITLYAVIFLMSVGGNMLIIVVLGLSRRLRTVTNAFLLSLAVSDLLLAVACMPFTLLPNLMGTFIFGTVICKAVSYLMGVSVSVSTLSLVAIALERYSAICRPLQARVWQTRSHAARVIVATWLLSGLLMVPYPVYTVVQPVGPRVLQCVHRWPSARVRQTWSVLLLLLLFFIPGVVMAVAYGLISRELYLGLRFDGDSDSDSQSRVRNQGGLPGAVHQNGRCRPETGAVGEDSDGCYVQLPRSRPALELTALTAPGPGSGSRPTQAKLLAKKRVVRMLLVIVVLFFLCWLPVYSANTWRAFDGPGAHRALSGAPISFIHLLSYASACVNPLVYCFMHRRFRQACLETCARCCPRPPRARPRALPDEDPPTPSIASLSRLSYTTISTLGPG
test: Displacement of [125I]BH-CCK-8S from human recombinant CCK2 receptor expressed in NIH3T3 cells
pKi: −log10 of the molar value.
value.type: pKi

CC(C)(C)C(=O)CN1C(=O)N(CC(=O)Nc2cccc(O)c2)N=C(C2CCCCC2)c2ccccc21    7.88
CN(C)c1cccc(NC(=O)CN2N=C(C3CCCCC3)c3ccccc3N(CC(=O)C(C)(C)C)C2=O)c1    8.22
CNc1cccc(NC(=O)CN2N=C(c3ccccn3)c3ccccc3N(CC(=O)N3CCCC3)C2=O)c1    5.60
CNc1cccc(NC(=O)C[C@@H]2N=C(C3CCCCC3)c3ccccc3N(CC(=O)C(C)(C)C)C2=O)c1    8.22
Cc1cccc(NC(=O)CN2N=C(C3CCCCC3)c3ccccc3N(CC(=O)C(C)(C)C)C2=O)c1    8.05
CNc1cccc(NC(=O)C[C@H]2N=C(C3CCCCC3)c3ccccc3N(CC(=O)C(C)(C)C)C2=O)c1    7.88
CNc1cccc(NC(=O)CN2N=C(c3ccccn3)c3ccccc3N(CC(=O)c3ccccc3C)C2=O)c1    6.54
CNc1cccc(NC(=O)CN2N=C(c3ccccc3)c3ccccc3N(CC(=O)C(C)(C)C)C2=O)c1    7.13
CC(C)(C)C(=O)CN1C(=O)N(CC(=O)Nc2cccc(N3CCOCC3)c2)N=C(C2CCCCC2)c2ccccc21    7.78
CC(C)(C)C(=O)CN1C(=O)N(CC(=O)Nc2cccc(N3CCCC3)c2)N=C(C2CCCCC2)c2ccccc21    7.80
CC(C)(C)C(=O)CN1C(=O)N(CC(=O)Nc2cccc(-n3ccnc3)c2)N=C(C2CCCCC2)c2ccccc21    8.04
CNc1cccc(NC(=O)CN2N=C(C3CCCCC3)c3ccccc3N(CC(=O)C(C)(C)C)C2=O)c1    8.10
CC(C)(C)C(=O)CN1C(=O)N(CC(=O)Nc2cccc(C(=O)O)c2)N=C(C2CCCCC2)c2ccccc21    8.29
COc1cccc(NC(=O)CN2N=C(C3CCCCC3)c3ccccc3N(CC(=O)C(C)(C)C)C2=O)c1    8.26
CNc1cccc(NC(=O)CN2N=C(c3ccccn3)c3ccccc3N(CC(=O)C(C)(C)C)C2=O)c1    6.71
CNc1cccc(NC(=O)N[C@@H]2N=C(c3ccccn3)c3ccccc3N(CC(=O)C(C)(C)C)C2=O)c1 [NETAZEPIDE]    9.86
CCOCCNc1cccc(NC(=O)CN2N=C(C3CCCCC3)c3ccccc3N(CC(=O)C(C)(C)C)C2=O)c1    7.35

---

measurement.target: Gastrin/cholecystokinin type B receptor (Homo sapiens, UniProt P32239)
test: Displacement of [125I]BH-CCK-8S from human recombinant CCK2 receptor expressed in NIH3T3 cells
pKi: −log10 of the molar value.
Item-by-item account of pKi
value.type: pKi

CC(C)(C)C(=O)CN1C(=O)N(CC(=O)Nc2cccc(N)c2)N=C(C2CCCCC2)c2ccccc21    7.57
CNCCN(C)c1cccc(NC(=O)CN2N=C(C3CCCCC3)c3ccccc3N(CC(=O)C(C)(C)C)C2=O)c1    7.53
CC(C)(C)C(=O)CN1C(=O)N(CC(=O)Nc2cccc(CO)c2)N=C(C2CCCCC2)c2ccccc21    7.82

---

The following compounds are listed with their measured Ki values.
measurement.target: Cholecystokinin receptor type A (Homo sapiens)
test: Displacement of [3H]L-364718 from human recombinant CCK1 receptor expressed in PC3 cell line
Format: cell-based, PC-3
value.type: Ki

CCOCCNc1cccc(NC(=O)CN2N=C(C3CCCCC3)c3ccccc3N(CC(=O)C(C)(C)C)C2=O)c1    > 10 µM
CNc1cccc(NC(=O)CN2N=C(C3CCCCC3)c3ccccc3N(CC(=O)C(C)(C)C)C2=O)c1    > 10 µM
CC(C)(C)C(=O)CN1C(=O)N(CC(=O)Nc2cccc(N3CCCC3)c2)N=C(C2CCCCC2)c2ccccc21    > 10 µM
